experiment: Plasma pharmacokinetic studies of idronoxil in rats (rectal in cocoa butter vs intestinal in lipid emulsion); format: in vivo, Male Sprague-Dawley rats; conditions: male, Sprague-Dawley, rat, plasma, other: intraduodenal infusion, 10 mg/kg, Intestinal delivery (intraduodenal infusion), lipid emulsion, 10 mg/kg, 4 hr; read-out: Idronoxil Plasma Concentration Rat 2
readout-name: concentration at 4 h (ng/mL)
Expressed in ng/mL, but write only the number.

Problem: Respond only with concentration at 4 h recorded for "Oc1ccc(C2=Cc3ccc(O)cc3OC2)cc1"
Solution: 7.03

====

Assay: Plasma pharmacokinetic studies of idronoxil in rats (rectal in cocoa butter vs intestinal in lipid emulsion)
Type: in vivo, Male Sprague-Dawley rats
Settings: male, Sprague-Dawley, rat, plasma, other: intraduodenal infusion, 10 mg/kg, Intestinal delivery (intraduodenal infusion), lipid emulsion, 10 mg/kg, 3 hr; read-out: Idronoxil Plasma Concentration Mean
Protocol: The objective of this study in rodents is to determine the plasma pharmacokinetics of idronoxil after rectal delivery and intestinal delivery in lipids (cocoa butter or emulsion). […] Sample analysis: Plasma concentrations of idronoxil were measured by the HMST-lab using a validated HPLC-MS/MS method. […] MS analysis was conducted in positive mode electrospray ionisation and quantitation of the analytes performed in MRM mode. […]
readout-name: concentration at 3 h

Problem: Respond only with concentration at 3 h recorded for "Oc1ccc(C2=Cc3ccc(O)cc3OC2)cc1"
Solution: 24.3 ng/mL

====

assay: Plasma pharmacokinetic studies of idronoxil in rats (rectal in cocoa butter vs intestinal in lipid emulsion); assay type: in vivo, Male Sprague-Dawley rats; conditions: male, Sprague-Dawley, rat, plasma, other: rectal, 10 mg/kg, Rectal delivery, cocoa butter, 10 mg/kg, 8 hr; read-out: Idronoxil Plasma Concentration Rat 3
readout-name: concentration at 8 h (ng/mL)
Expressed in ng/mL, but write only the number.

Problem: Respond only with concentration at 8 h recorded for "Oc1ccc(C2=Cc3ccc(O)cc3OC2)cc1"
Solution: 16.1

====

test: Plasma pharmacokinetic studies of idronoxil in rats (rectal in cocoa butter vs intestinal in lipid emulsion); format: in vivo, Male Sprague-Dawley rats; details: male, Sprague-Dawley, rat, plasma, other: intraduodenal infusion, 10 mg/kg, Intestinal delivery (intraduodenal infusion), lipid emulsion, 10 mg/kg, 6 hr; read-out: Idronoxil Plasma Concentration Rat 3
readout-name: concentration at 6 h (ng/mL)
Expressed in ng/mL, but write only the number.

Problem: Respond only with concentration at 6 h recorded for Oc1ccc(C2=Cc3ccc(O)cc3OC2)cc1 [Idronoxil]
Solution: 7.72

====

assay: Plasma pharmacokinetic studies of idronoxil in rats (rectal in cocoa butter vs intestinal in lipid emulsion); format: in vivo, Male Sprague-Dawley rats; conditions: male, Sprague-Dawley, rat, plasma, other: intraduodenal infusion, 10 mg/kg, Intestinal delivery (intraduodenal infusion), lipid emulsion, 10 mg/kg, 2 hr; read-out: Idronoxil Plasma Concentration Rat 3
readout-name: concentration at 2 h (ng/mL)
Expressed in ng/mL, but write only the number.

Problem: Respond only with concentration at 2 h recorded for Oc1ccc(C2=Cc3ccc(O)cc3OC2)cc1 [Idronoxil]
Solution: 136

====

Assay: Plasma pharmacokinetic studies of idronoxil in rats (rectal in cocoa butter vs intestinal in lipid emulsion)
Assay type: in vivo, Male Sprague-Dawley rats
Conditions: male, Sprague-Dawley, rat, plasma, other: rectal, 10 mg/kg, Rectal delivery, cocoa butter, 10 mg/kg, 7 hr; read-out: Idronoxil Plasma Concentration Rat 1
Protocol: The objective of this study in rodents is to determine the plasma pharmacokinetics of idronoxil after rectal delivery and intestinal delivery in lipids (cocoa butter or emulsion). […] Sample analysis: Plasma concentrations of idronoxil were measured by the HMST-lab using a validated HPLC-MS/MS method. […] MS analysis was conducted in positive mode electrospray ionisation and quantitation of the analytes performed in MRM mode. […]
readout-name: concentration at 7 h (ng/mL)
Expressed in ng/mL, but write only the number.

Problem: Respond only with concentration at 7 h recorded for "Oc1ccc(C2=Cc3ccc(O)cc3OC2)cc1"
Solution: 20.6
